Numbers sourced from ChEMBL document CHEMBL1759993.

# Ki listing for each entry below
Molecular target: Beta-lactamase (Enterobacter cloacae, UniProt P05364)
Sequence (P05364 whole entry): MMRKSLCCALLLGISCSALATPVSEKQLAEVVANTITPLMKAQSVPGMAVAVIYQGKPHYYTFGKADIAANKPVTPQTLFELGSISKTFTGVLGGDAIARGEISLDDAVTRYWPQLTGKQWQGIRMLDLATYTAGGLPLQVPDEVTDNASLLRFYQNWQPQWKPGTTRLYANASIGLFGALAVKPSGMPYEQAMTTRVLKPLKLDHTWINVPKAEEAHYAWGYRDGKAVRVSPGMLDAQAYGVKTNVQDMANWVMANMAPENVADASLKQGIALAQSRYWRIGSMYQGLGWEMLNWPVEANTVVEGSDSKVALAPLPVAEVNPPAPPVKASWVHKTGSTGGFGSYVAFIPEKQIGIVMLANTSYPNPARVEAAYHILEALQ
Experiment: Inhibition of Enterobacter cloacae P99 beta-lactamase AmpC P99 using nitrocefin as substrate after 30 mins by spectrophotometric analysis
A bare number is not enough; add the unit after it.

COc1cccc(Oc2ccc3c(c2)B(O)OC3)c1 : 1.35 µM
COc1ccc(Oc2ccc3c(c2)B(O)OC3)cc1 : 6 µM
CN(C)Cc1ccc(Oc2ccc3c(c2)B(O)OC3)cc1 : 40.6 µM

## Task Short answer please: Ki, Beta-lactamase (Enterobacter cloacae, UniProt P05364), entry [O-][S+](c1ccccc1)c1ccc2c(c1)B(O)OC2 (centres undefined)
## Result 58 µM
